These measurements were taken from patent US4276289A.

# System: P 388 leukemia
# assay-protocol: in vivo activity against P 388 leukemia (treatment i.p. on day 1 after tumor implantation)
# condition-parameters: 6.6 mg/kg
# Toxicity listing for each entry below
quantity-kind: Toxicity

{"molecule": "COc1cccc2c1C(=O)c1c(O)c3c(c(O)c1C2=O)C[C@@](O)(C(C)=O)C[C@@H]3O[C@H]1C[C@H](N)[C@H](O)[C@H](C)O1 [Daunorubicin, reference compound]", "target-desc": "P 388 leukemia", "reported-measurement": "3/8"}
{"molecule": "COc1cccc2c1C(=O)c1c(O)c3c(c(O)c1C2=O)C[C@@](O)(C(=O)CO)C[C@@H]3O[C@H]1C[C@@H](N)[C@@H](OC)[C@H](C)O1 [3',4'-diepi-4'-O-methyl doxorubicin, 3',4'-diepi-4'-O-methyl-doxorubicin]", "target-desc": "P 388 leukemia", "reported-measurement": "10/10"}
{"molecule": "COc1cccc2c1C(=O)c1c(O)c3c(c(O)c1C2=O)C[C@@](O)(C(C)=O)C[C@@H]3O[C@H]1C[C@@H](N)[C@@H](OC)[C@H](C)O1 [3',4'-diepi-4'-O-methyl daunorubicin, 3',4'-diepi-4'-O-methyl-daunorubicin]", "target-desc": "P 388 leukemia", "reported-measurement": "0/8"}
{"molecule": "COc1cccc2c1C(=O)c1c(O)c3c(c(O)c1C2=O)C[C@@](O)(C(=O)CO)C[C@@H]3O[C@H]1C[C@H](N)[C@H](O)[C@H](C)O1 [Doxorubicin, reference compound]", "target-desc": "P 388 leukemia", "reported-measurement": "0/8"}
